Sourced from patent US20110070235A1

# tested_target: M2 protein of A/Hong Kong/483/1997, expressed on cells (Influenza A virus A/Hong Kong/483/1997 (H5N1))
experimental_readout: FACS M2-HK MFI (MFI)
One number for each entry, in MFI.

Required: FACS M2-HK MFI, one value per binder below.
1. 3245_O19 (antibody, V domains shown) VH: EVQLVESGGGLVQPGGSLRLSCTASGLSVSSTYMNWVRQAPGKGLEWVSVFYSETRTYYADSVKGRFTVSRHNSNNTLYLQMNSLRVEDTAVYYCARVQRLSYGMDVWGQGTTVTVSS VL: DIQMTQSPSSLSASVGDRVTITCRASQSISTYLNWYQKRPGKAPKLLVYGASTLQSGVPSRFSGSGSGTDFTLTIASLQPEDSATYYCQQTYSIPLFGQGTRLEIK
2. 3362_B11 (antibody, V domains shown) VH: QVQLQASGPGLVKPSETLSLTCTVSGDSITSGAYYWTWIRQHPGKGLEWIGYIYYSGNTYYNPSLKSRVTISLDTSKNQFSLKVNSVTAADTAVYYCARAASTSVLGYGMDVWGQGTTVTVSS VL: DIQMTQSPSSLSASVGDRVTITCRASQSISRYLNWYQQEPGKAPKLLVYAASSLQSGVPSRFSGSGSGTDFTLTISSLQPEDFATYYCQQSYSTPLTFGQGTRLEIK

[919, 218]

Record request: FACS M2-HK MFI value, item 3244_I10 (antibody, V domains shown) VH: QVQLQESGPGLLKPSDTLALTCTVSGGSITSDYWSWIRQPPGRGLDWIGFFYNGGSTKYNPSLKSRVTISADTSKNQLSLKLTSVTAADTGVYYCARHDAKFSGSYYVASWGQGTRVTVSS VL: DIQMTQSPSSLSASVGDRVTISCRASQSISTYLNWYQQQPGKAPKVLIFGATNLQSGVPSRFSGSGSGTDFTLTISSLQPEDFATYYCQQSYNTPLIFGQGTKLEIK
434
